Biological target: AAD1 (v1) (Sphingobium herbicidovorans)
Construct: made in house; host or cells: E. coli BL-21 Star (DE3), plasmid pDAB3203
Sequence (Q8KSC8 whole entry): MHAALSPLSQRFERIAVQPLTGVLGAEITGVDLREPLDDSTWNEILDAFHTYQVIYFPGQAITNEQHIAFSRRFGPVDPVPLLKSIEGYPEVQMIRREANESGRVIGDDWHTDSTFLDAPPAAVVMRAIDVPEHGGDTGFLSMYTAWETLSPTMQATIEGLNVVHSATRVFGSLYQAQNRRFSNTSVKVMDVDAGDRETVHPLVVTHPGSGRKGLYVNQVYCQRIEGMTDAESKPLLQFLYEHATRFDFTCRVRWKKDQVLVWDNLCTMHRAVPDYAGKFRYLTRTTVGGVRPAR
Assay: Colorimetric phenol detection assay of AAD1 (v1) activity (purified enzyme or E. coli extract)
Format: biochemical
Settings: Table 8; relative to 2,4-D; crude AAD1 (v1) extract
Kindly state % 2,4-D for each of the entries shown.
Field format: number, assumed %, no unit text.

INPUT: Record lookup: for AAD1 (v1) (Sphingobium herbicidovorans), what % 2,4-D belongs to CC(Oc1cc(F)c(Cl)c(N)c1Cl)C(=O)O (racemic) [(R,S)-3-amino, 5-F-dichlorprop] ?
OUTPUT: 125

INPUT: Record lookup: for AAD1 (v1) (Sphingobium herbicidovorans), what % 2,4-D belongs to O=C(O)COc1ccc(Cl)cc1Cl [2,4-D, 2,4-dichlorophenoxyacetic acid] ?
OUTPUT: 100

INPUT: Record lookup: for AAD1 (v1) (Sphingobium herbicidovorans), what % 2,4-D belongs to O=C(O)COc1cc(F)c(Cl)cc1Cl [5-F, 2,4-D] ?
OUTPUT: 32

INPUT: Record lookup: for AAD1 (v1) (Sphingobium herbicidovorans), what % 2,4-D belongs to Cc1cc(Cl)ccc1OCC(=O)O [MCPA] ?
OUTPUT: 55

---

Target: AAD1 (v1) (Sphingobium herbicidovorans)
Construct: made in house; host or cells: E. coli BL-21 Star (DE3), plasmid pDAB3203
Test: Colorimetric phenol detection assay of AAD1 (v1) activity (purified enzyme or E. coli extract)
Type: biochemical
Conditions: Table 4; substrate 1 mM; 10 μg purified AAD1 (v1) per 0.16 ml assay
Kindly state A510, AAD1 (10x) for each of the entries shown.
No unit in the answer, only the number.

INPUT: Record lookup: for AAD1 (v1) (Sphingobium herbicidovorans), what A510, AAD1 (10x) belongs to C[C@@H](Oc1ccc(Oc2nc3ccc(Cl)cc3o2)cc1)C(=O)O [(R)- fenoxaprop] ?
OUTPUT: 0.597

INPUT: Record lookup: for AAD1 (v1) (Sphingobium herbicidovorans), what A510, AAD1 (10x) belongs to CC(Oc1ccc(Oc2ncc(C(F)(F)F)cc2Cl)cc1)C(=O)O (stereo not drawn) ?
OUTPUT: 1.63

INPUT: Record lookup: for AAD1 (v1) (Sphingobium herbicidovorans), what A510, AAD1 (10x) belongs to CC(Oc1ccc(Oc2ncc(Cl)cc2Cl)cc1)C(=O)O (racemic) [(R,S)- chlorazifop] ?
OUTPUT: 1.584

INPUT: Record lookup: for AAD1 (v1) (Sphingobium herbicidovorans), what A510, AAD1 (10x) belongs to CC(Oc1ccc(Oc2nc3ccc(Cl)cc3s2)cc1)C(=O)O (racemic) [(R,S)- fenthiaprop] ?
OUTPUT: 1.055

INPUT: Record lookup: for AAD1 (v1) (Sphingobium herbicidovorans), what A510, AAD1 (10x) belongs to C[C@@H](Oc1ccc(Oc2ccc(C#N)cc2F)cc1)C(=O)O [(R)- cyhalofop] ?
OUTPUT: 1.989

INPUT: Record lookup: for AAD1 (v1) (Sphingobium herbicidovorans), what A510, AAD1 (10x) belongs to CC(Oc1ccc(Oc2ncc(C(F)(F)F)cc2Cl)cc1F)C(=O)O (stereo not drawn) ?
OUTPUT: 1.69

---

System: Arabidopsis thaliana var. Columbia
Assay: Arabidopsis plate test bioassay for herbicide degradation
Assay type: in vivo
Details: Arabidopsis thaliana, 168 h; root length, 7 days; read-out: GR50, Chemical alone
PARAMETER_MEASURED: IC50 (nM)
Field format: number, assumed nM, no unit text.

INPUT: // returns reported IC50 for input Nc1c(Cl)c(F)nc(OCC(=O)O)c1Cl
OUTPUT: 2200

INPUT: // returns reported IC50 for input O=C(O)COc1nc(Cl)c(Cl)cc1Cl
OUTPUT: 255

Every entry's value here was drawn from patent US10450549B2.
